- Subject Of Test: human BACE1 (Homo sapiens)
- Method Summary: Fluorescent kinetic assay, evaluation of BACE1 binding affinity of test compounds
- Format: biochemical
- Setup Conditions: 10 nM human BACE1, 25 μM substrate WABC-6, pH 4.5, room temperature; read-out: BACE1 IC50
pIC50: −log10 of the molar value.
# pIC50 per record follows

See these solved cases before continuing.
[[record]]
compound = "CCCOc1cccc(C2(c3ccc(OC(F)F)c(Cl)c3)N=C(N)N(C)C2=O)c1 (stereo not shown)"
subject_of_test = "human BACE1 (Homo sapiens)"
result = "> 7.00"

[[record]]
compound = "C/C=C/c1cc(C2(c3ccc(OC(F)F)c(C)c3)N=C(N)N(C)C2=O)ccc1F (stereo not shown)"
subject_of_test = "human BACE1 (Homo sapiens)"
result = "> 7.00"

[[record]]
compound = "CN1C(=O)[C@@](c2ccc(F)c(OCCCF)c2)(c2ccc(OC(F)F)c(C3CC3)c2)N=C1N (single isomer, unassigned)"
subject_of_test = "human BACE1 (Homo sapiens)"
result = "< 6.00"

[[record]]
compound = "CCCC#Cc1cc([C@]2(c3ccc(OC(F)F)c(C)c3)N=C(N)N(C)C2=O)ccc1F (single isomer, unassigned)"
subject_of_test = "human BACE1 (Homo sapiens)"
result = "6.00 to 6.96"

[[record]]
compound = "Cc1cc([C@]2(c3ccc(F)c(C#CCCF)c3)N=C(N)N(C)C2=O)ccc1OC(F)F"
subject_of_test = "human BACE1 (Homo sapiens)"
result = "> 7.00"


The compound "CCc1cc([C@]2(c3ccc(F)c(C#CCOC)c3)N=C(N)N(C)C2=O)ccc1OC(F)F" showed pIC50 equal to > 7.00

The compound CC(C)C#Cc1cccc([C@]2(c3ccc(OC(F)F)c(C4CC4)c3)N=C(N)N(C)C2=O)c1 (single isomer, unassigned) showed pIC50 equal to < 6.00

---

- Subject Of Test: human BACE1 (Homo sapiens)
- Method Summary: Fluorescent kinetic assay, evaluation of BACE1 binding affinity of test compounds
- Format: biochemical
- Setup Conditions: 10 nM human BACE1, 25 μM substrate WABC-6, pH 4.5, room temperature; read-out: BACE1 IC50
Metric: IC50

[[record]]
molecule = "CCc1cc(C2(c3ccc(F)c(OCC(F)F)c3)N=C(N)N(C)C2=O)ccc1OC(F)F (stereo not shown) [Example 117]"
metric = "IC50"
result = "< 100 nM"

[[record]]
molecule = "COCCC#Cc1cccc(C2(c3ccc(OC(F)F)c(C4CC4)c3)N=C(N)N(C)C2=O)c1 (stereo not shown) [Example 183]"
metric = "IC50"
result = "< 100 nM"

[[record]]
molecule = "Cc1cc(C2(c3ccc(F)c(OCCCF)c3)N=C(N)N(C)C2=O)ccc1OC(F)F (stereo not shown) [Example 108]"
metric = "IC50"
result = "< 100 nM"

[[record]]
molecule = "CN1C(=O)C(c2ccc(F)c(C#CCF)c2)(c2ccc(OC(F)F)c(C3CC3)c2)N=C1N (stereo not shown) [Example 210]"
metric = "IC50"
result = "< 100 nM"

[[record]]
molecule = "Cc1cc([C@@]2(c3cccc(C#CCCF)c3)N=C(N)N(C)C2=O)ccc1OC(F)F [Example 204]"
metric = "IC50"
result = "> 1000 nM"

[[record]]
molecule = "CN1C(=O)[C@@](c2ccc(F)c(OCC(F)F)c2)(c2ccc(OC(F)F)c(C3CC3)c2)N=C1N [Example 124]"
metric = "IC50"
result = "> 1000 nM"


The molecule CN1C(=O)C(c2ccc(OC(F)F)c(C3CC3)c2)(c2ccc(OC(F)F)c(C3CC3)c2)N=C1N [Example 194] showed IC50 equal to 110 to 1000 nM

The molecule CCc1cc([C@@]2(c3ccc(F)c(C#CCOC)c3)N=C(N)N(C)C2=O)ccc1OC(F)F [Example 157] showed IC50 equal to 110 to 1000 nM

The molecule CCC#Cc1cccc(C2(c3ccc(OC(F)F)c(C)c3)N=C(N)N(C)C2=O)c1 (stereo not shown) [Example 81] showed IC50 equal to < 100 nM

The molecule Cc1cccc(C2(c3ccc(OC(F)F)c(C)c3)N=C(N)N(C)C2=O)c1 (stereo not shown) [Example 77] showed IC50 equal to 110 to 1000 nM

The molecule CCc1cc(C2(c3ccc(F)c(C#CC(C)C)c3)N=C(N)N(C)C2=O)ccc1OC(F)F (stereo not shown) [Example 153] showed IC50 equal to < 100 nM

---

- Subject Of Test: human BACE1 (Homo sapiens)
- Method Summary: Fluorescent kinetic assay, evaluation of BACE1 binding affinity of test compounds
- Type: biochemical
- Setup Conditions: 10 nM human BACE1, 25 μM substrate WABC-6, pH 4.5, room temperature; read-out: BACE1 IC50
Metric: IC50

See these solved cases before continuing.
[[record]]
molecule = "Cc1cc([C@@]2(c3ccc(F)c(OCCF)c3)N=C(N)N(C)C2=O)ccc1OC(F)F"
subject_of_test = "human BACE1 (Homo sapiens)"
result = "> 1000 nM"

[[record]]
molecule = "Cc1cc(C2(c3ccc(F)cc3)N=C(N)N(C)C2=O)ccc1OC(F)F (stereo not shown)"
subject_of_test = "human BACE1 (Homo sapiens)"
result = "110 to 1000 nM"

[[record]]
molecule = "Cc1cc([C@]2(c3cccc(C#CCF)c3)N=C(N)N(C)C2=O)ccc1OC(F)F"
subject_of_test = "human BACE1 (Homo sapiens)"
result = "< 100 nM"

[[record]]
molecule = "C/C=C/c1cccc(C2(c3ccc(OC(F)F)c(C)c3)N=C(N)N(C)C2=O)c1 (stereo not shown)"
subject_of_test = "human BACE1 (Homo sapiens)"
result = "< 100 nM"


Form: item "CN1C(=O)[C@@](c2ccc(F)c(C#CCCF)c2)(c2ccc(OC(F)F)c(C3CC3)c2)N=C1N" ; test system human BACE1 (Homo sapiens); IC50: > 1000 nM

Form: item CN1C(=O)C(c2cccc(C#CCF)c2)(c2ccc(OC(F)F)c(C3CC3)c2)N=C1N (stereo not shown) ; test system human BACE1 (Homo sapiens); IC50: < 100 nM

---

- Subject Of Test: human BACE1 (Homo sapiens, UniProt P56817)
- Sequence (P56817 46-501): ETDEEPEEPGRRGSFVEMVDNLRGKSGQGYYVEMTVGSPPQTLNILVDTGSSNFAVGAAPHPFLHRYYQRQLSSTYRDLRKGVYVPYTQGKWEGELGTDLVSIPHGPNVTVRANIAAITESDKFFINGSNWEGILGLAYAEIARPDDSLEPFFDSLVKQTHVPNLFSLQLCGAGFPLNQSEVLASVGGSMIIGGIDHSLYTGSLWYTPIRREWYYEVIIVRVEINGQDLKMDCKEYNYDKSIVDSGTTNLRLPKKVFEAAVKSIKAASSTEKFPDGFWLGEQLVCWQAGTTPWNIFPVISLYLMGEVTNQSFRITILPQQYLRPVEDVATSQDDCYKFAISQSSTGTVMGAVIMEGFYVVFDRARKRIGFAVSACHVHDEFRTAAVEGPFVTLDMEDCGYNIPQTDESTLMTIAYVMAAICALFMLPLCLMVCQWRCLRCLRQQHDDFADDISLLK
- Method Summary: Fluorescent kinetic assay, evaluation of BACE1 binding affinity of test compounds
- Type: biochemical
- Setup Conditions: 10 nM human BACE1, 25 μM substrate WABC-6, pH 4.5, room temperature; read-out: BACE1 IC50
pIC50: −log10 of the molar value.
Metric: pIC50

See these solved cases before continuing.
[[record]]
compound = "CCCC#Cc1cc(C2(c3ccc(OC(F)F)c(CCF)c3)N=C(N)N(C)C2=O)ccc1F (stereo not drawn) [Example 88]"
metric = "pIC50"
result = "> 7.00"

[[record]]
compound = "CCc1cc([C@@]2(c3ccc(F)c(OCC(F)F)c3)N=C(N)N(C)C2=O)ccc1OC(F)F [Example 118]"
metric = "pIC50"
result = "< 6.00"

[[record]]
compound = "CN1C(=O)C(c2cccc(OCCCF)c2)(c2ccc(OC(F)F)c(Cl)c2)N=C1N (stereo not drawn) [Example 40]"
metric = "pIC50"
result = "> 7.00"

[[record]]
compound = "CN1C(=O)C(c2ccc(F)c(C#CCCF)c2)(c2ccc(OC(F)F)c(C3CC3)c2)N=C1N (stereo not drawn) [Example 208]"
metric = "pIC50"
result = "> 7.00"

[[record]]
compound = "CN1C(=O)C(c2ccccc2)(c2ccc(OC(F)F)c(CCF)c2)N=C1N (stereo not drawn) [Example 74]"
metric = "pIC50"
result = "6.00 to 6.96"


The compound Cc1cc(C2(c3cccc(C#CCCF)c3)N=C(N)N(C)C2=O)ccc1OC(F)F (stereo not drawn) [Example 202] showed pIC50 equal to > 7.00

The compound CN1C(=O)[C@](c2cccc(C#CC3CC3)c2)(c2ccc(OC(F)F)c(C3CC3)c2)N=C1N (single isomer, unassigned) [Example 177] showed pIC50 equal to > 7.00

The compound C/C=C/c1cccc(C2(c3ccc(OC(F)F)c(Cl)c3)N=C(N)N(C)C2=O)c1 (stereo not drawn) [Example 65] showed pIC50 equal to > 7.00

---

- Subject Of Test: human BACE1 (Homo sapiens, UniProt P56817)
- Method Summary: Fluorescent kinetic assay, evaluation of BACE1 binding affinity of test compounds
- Type: biochemical
- Setup Conditions: 10 nM human BACE1, 25 μM substrate WABC-6, pH 4.5, room temperature; read-out: BACE1 IC50
- Experimental: Concentration is determined by absorbance at 354 nm using an extinction coefficient of 18172 M^-1 cm^-1, the concentration of stock substrate is corrected, and the substrate stock stored in small aliquots in -80° C. […]
pIC50: −log10 of the molar value.
# pIC50 per record follows

[[record]]
compound = "CCCOc1cc(C2(c3ccc(OC(F)F)c(Cl)c3)N=C(N)N(C)C2=O)ccc1F (centres unmarked)"
result = "> 7.00"

[[record]]
compound = "Cc1cc(C2(c3ccc(F)c(C#CCCF)c3)N=C(N)N(C)C2=O)ccc1OC(F)F (centres unmarked)"
result = "> 7.00"

[[record]]
compound = "COCC#Cc1cccc([C@]2(c3ccc(OC(F)F)c(C)c3)N=C(N)N(C)C2=O)c1"
result = "6.00 to 6.96"


The compound CCC#Cc1cc([C@]2(c3ccc(OC(F)F)c(C)c3)N=C(N)N(C)C2=O)ccc1F (single isomer, unassigned) showed pIC50 equal to 6.00 to 6.96

The compound CCCC#Cc1cccc(C2(c3ccc(OC(F)F)c(C4CC4)c3)N=C(N)N(C)C2=O)c1 (centres unmarked) showed pIC50 equal to 6.00 to 6.96

The compound COCC/C=C/c1cc(C2(c3ccc(OC(F)F)c(C)c3)N=C(N)N(C)C2=O)ccc1F (centres unmarked) showed pIC50 equal to > 7.00

The compound COCCCC#Cc1cccc(C2(c3ccc(OC(F)F)c(C4CC4)c3)N=C(N)N(C)C2=O)c1 (centres unmarked) showed pIC50 equal to > 7.00

The compound CN1C(=O)C(c2ccc(OC(F)F)c(Cl)c2)(c2ccc(F)c(OCCF)c2)N=C1N (centres unmarked) showed pIC50 equal to > 7.00
